This collection of values is drawn from PubChem BioAssay (NCATS).

# method.summary: qHTS to identify inhibitors of the type 1 interferon - major histocompatibility complex class I in skeletal muscle: primary screen against the NCATS Mechanism Interrogation Plate v5.0 (MIPE) Libary (AID 1347411); note: nearly all actives have a fitted effect of over 65% in size
# assay.setup: iHSKM cells + IFN-b, HiBiT-tagged MHC-I luminescence, 24 h; series mostly up to 45.8 µM
Records with an inconclusive call do not appear. The source made the active and inactive calls. Calls come from the whole dose curve; as a rule, active = well fitted inhibition curve with a large enough effect; inconclusive = small, poorly fitted or top-dose-only effect; inactive = no such curve, though single readings can be large or run the other way.
Please state which outcome applies, choosing from active, inactive

What classification did "Cc1nc(NC(=O)N2CCC[C@H]2C(N)=O)sc1-c1csc(C(C)(C)C)n1" end up with in this test?
inactive

Outcome logged for "COc1ccc(C(=O)N2CCN(C(=O)/C=C/c3ccc(Br)cc3)CC2)cc1" in this assay:
inactive

Which outcome was entered for the compound CNC(=O)Cn1cc(-c2ccc3c(c2)C(F)CC32NC(=O)N(CC(=O)N(Cc3ccc(F)cc3)C(C)C(F)(F)F)C2=O)cn1 (stereo unspecified) in this test?
inactive

Write down the call the test reported for this compound. Item: CCC(C)CNCC(=O)N1CCc2sccc2C1c1cccc(C)n1 (stereo unspecified)
inactive

State the result this test recorded for "Nc1nc(F)nc2c1ncn2[C@@H]1O[C@H](COP(=O)(O)O)[C@@H](O)[C@@H]1O" .
inactive

What was the test verdict on "CN1C(=O)[C@@H](NC(=O)c2n[nH]c(Cc3ccccc3)n2)COc2ccccc21" ?
inactive

Recorded test outcome, item "CS(=O)(=O)c1ccc([C@@H](CC2CCCC2)C(=O)Nc2nccs2)cc1"
inactive

// return assay outcome for "O=C(CCCc1ccc2cccnc2n1)NCc1cc(-c2ccc(F)c(C(F)(F)F)c2)no1"
inactive

// param item: "O=C(Nc1cnccc1Cl)N1CCN(Cc2ccc3c(c2)OC(F)(F)O3)CC1" ; yields the recorded call
inactive

For "O=C(CCCCCCC(=O)N/N=C/c1ccc(N(c2ccccc2)c2ccccc2)cc1)NO" , which call appears in the assay record?
active

Just curious, what result did CC#Cc1cncc(-c2ccc3c(c2)[C@@]2(N=C(C)C(N)=N2)C2(CCC(OC)CC2)C3)c1 (stereo partly specified) get here?
inactive
